test system: U2OS; assay: Incucyte cell viability with U2OS; assay type: toxicity, cell-based; conditions: human, 0 h, 10 µM, compound concentration 10 uM, replicate number 1; further: unitless GR value; below 1 slowed growth and below 0 cell loss
Lab note - cut at -0.3 for Growth Rate: criterion met if strictly below, criterion not met if not.

>>> print(df.to_string())
                                   compound     discrete_label
0  Cc1cc([N+](=O)[O-])c(NS(=O)(=O)c2cccc(C(=O)O)c2)cc1-c1cccnc1 [ALOFANIB]      criterion met
1  CCc1nc(-c2cccc(C)c2)c(-c2ccnc(NC(=O)c3ccccc3)c2)s1 [TAK-715]      criterion met
2  Cc1c[nH]c(-c2cnc(NCCNc3ccc(C#N)cn3)nc2-c2ccc(Cl)cc2Cl)n1 [LADUVIGLUSIB]  criterion not met
3  CC1CNCCc2c1nc1ccnn1c2N1CC(C(=O)N2CCC(C)(C)C2)C1 (stereo not drawn)  criterion not met
4  CC(C)(C)c1ccc(-c2coc3ccc(-c4cn[nH]c4)nc23)cc1  criterion not met
5  c1cc(-c2cnn3cc(-c4ccc(N5CCNCC5)cc4)cnc23)c2cccnc2c1      criterion met
6  COc1cnccc1Nc1nc(-c2nn(Cc3c(F)cc(OCCO)cc3F)c3ccccc23)ncc1OC      criterion met
7  Cc1nnc2n1-c1sc3c(c1C(c1ccccc1Cl)=NC2)C[C@@H](C(=O)N1CCOCC1)C3  criterion not met
